# System: Tankyrases
# details: read-out: EC50 [M] TNKS cellular assay; DLD1 cells, 24 hours, Axin2 increase
Can you tell me log10 of EC50 for the items I'm about to list?
// stored as log10 of EC50 expressed in M

Note to self: log10 of EC50 recorded for "Cc1csc2c(=O)[nH]c(CCCC(=O)N3CCC(C(=O)c4ccc(F)cc4)CC3)nc12" was -7.80

Note to self: log10 of EC50 recorded for "Cn1ncc2c(=O)[nH]c(CCCC(=O)N3CCC(C(=O)c4ccc(F)cc4)CC3)nc21" was -8.36

Note to self: log10 of EC50 recorded for "Cc1csc2c(=O)[nH]c(CCCC(=O)N3CCC(C(=O)c4cnn(C(C)C)c4)CC3)nc12" was -7.85

Note to self: log10 of EC50 recorded for "COc1ccc(C(=O)C2CCN(C(=O)CCCc3nn4c(C)ccc4c(=O)[nH]3)CC2)cc1C" was -9.01

Note to self: log10 of EC50 recorded for "CC(C)n1cc(C(=O)C2CCN(C(=O)CCCc3nc4c(cnn4C)c(=O)[nH]3)CC2)cn1" was -6.85

Note to self: log10 of EC50 recorded for "COc1ccc(C(=O)C2CCN(C(=O)CCCc3cn4ccnc4c(=O)[nH]3)CC2)cc1" was -6.39

Note to self: log10 of EC50 recorded for "CC(C)(O)c1ccc(C(=O)C2CCN(C(=O)CCCc3nc4c(c(=O)[nH]3)COCC4)CC2)cc1" was -5.43

Note to self: log10 of EC50 recorded for "COc1ccc(C(=O)C2CCN(C(=O)CCCc3nc4c(C)scc4c(=O)[nH]3)CC2)cc1" was -8.32

----------
# Test system: Tankyrases
# details: read-out: EC50 [M] TNKS cellular assay; DLD1 cells, 24 hours, Axin2 increase
Where a name gives a salt, the structure may show the parent alone.
Can you tell me EC50 for the items I'm about to list?
Report the figure in M without appending any unit label.

Note to self: EC50 recorded for "Cc1scc2c(=O)[nH]c(CCCC(=O)N3CCC(Oc4ccc(C#N)cc4)CC3)nc12" was 9.1e-07

Note to self: EC50 recorded for "Cc1scc2c(=O)[nH]c(CCCC(=O)N3CCC(C(=O)c4ccc(F)cc4)CC3)nc12" was 3.3e-08

Note to self: EC50 recorded for "COc1ccc(C(=O)C2CCN(C(=O)CCCc3nc4c(c(=O)[nH]3)CCCC4)CC2)cc1" was 3.7e-09

Note to self: EC50 recorded for "Cc1ccc2c(=O)[nH]c(CCCC(=O)N3CCC(Oc4ccc(C#N)cc4)CC3)cn12" was 4.7e-08

Note to self: EC50 recorded for "O=C(c1ccc(F)cc1)C1CCN(C(=O)CCCc2nn3cc(F)cc3c(=O)[nH]2)CC1" was 3.7e-08

Note to self: EC50 recorded for "Cn1cc(C(=O)C2CCN(C(=O)CCCc3cn4cccc4c(=O)[nH]3)CC2)cn1" was 4.5e-09

Note to self: EC50 recorded for "COc1ccc(C(=O)C2CCN(C(=O)CCCc3nc4c(C)scc4c(=O)[nH]3)CC2)cc1F" was 2.6e-09

Note to self: EC50 recorded for "COc1ccc(C(=O)C2CCN(C(=O)CCCc3nc4c(c(=O)[nH]3)COCC4)CC2)cc1" was 4.6e-09

Note to self: EC50 recorded for "N#Cc1cc(C2CCN(C(=O)CCCc3nn4cc(F)cc4c(=O)[nH]3)CC2)cnc1N" was 4.6e-08

Note to self: EC50 recorded for "COc1ccc(C(=O)C2CCN(C(=O)CCCc3nc4c(C)csc4c(=O)[nH]3)CC2)cc1" was 4.2e-10

Note to self: EC50 recorded for "O=C(c1ccc(F)cc1)C1CCN(C(=O)CCCc2nn3cccc3c(=O)[nH]2)CC1" was 2e-08

Note to self: EC50 recorded for "COc1ccc(C(=O)C2CCN(C(=O)CCCc3nn4cccc4c(=O)[nH]3)CC2)cc1C" was 1.7e-09

Note to self: EC50 recorded for "COc1ccc(C(=O)C2CCN(C(=O)CCCc3nc4c(cnn4C)c(=O)[nH]3)CC2)cn1" was 4.3e-09

Note to self: EC50 recorded for "Cn1ncc2c(=O)[nH]c(CCCC(=O)N3CCC(c4cnc(N)c(C#N)c4)CC3)nc21" was 4e-07

Note to self: EC50 recorded for "COc1ccc(C(=O)C2CCN(C(=O)CCCc3nn4c(C)ccc4c(=O)[nH]3)CC2)cn1" was 1.4e-09

Note to self: EC50 recorded for "Cn1ccc2c(=O)[nH]c(CCCC(=O)N3CCC(c4nnc(-c5ccccc5)o4)CC3)nc21" was 4.7e-07

Note to self: EC50 recorded for CC(C)c1cc(=O)[nH]c(CCCC(=O)N2CCC(C(=O)c3cnn(C)c3)CC2)n1 [Compound C257, trifluoroacetate] was 9.3e-06

Note to self: EC50 recorded for "CCn1cc(C(=O)C2CCN(C(=O)CCCc3nn4cccc4c(=O)[nH]3)CC2)cn1" was 1.5e-08

Note to self: EC50 recorded for "CC(C)(O)c1ccc(C(=O)C2CCN(C(=O)CCCc3nn4cccc4c(=O)[nH]3)CC2)cc1" was 8.3e-08

Note to self: EC50 recorded for "CCn1cc(C(=O)C2CCN(C(=O)CCCc3nn4c(C)ccc4c(=O)[nH]3)CC2)cn1" was 2.6e-09

Note to self: EC50 recorded for "Cn1cc(C(=O)C2CCN(C(=O)CCCc3nc4c(c(=O)[nH]3)COCC4)CC2)cn1" was 2.2e-06

Note to self: EC50 recorded for "COc1ccc(C(=O)C2CCN(C(=O)CCCc3cn4cccc4c(=O)[nH]3)CC2)cc1C" was 3.4e-10

Note to self: EC50 recorded for "Cc1scc2c(=O)[nH]c(CCCC(=O)N3CCC(C(=O)c4ccc(C(C)(C)O)cc4)CC3)nc12" was 6.8e-08

Note to self: EC50 recorded for "Cc1ccc2c(=O)[nH]c(CCCC(=O)N3CCC(C(=O)c4cnn(C)c4)CC3)cn12" was 3.5e-09

Note to self: EC50 recorded for "COc1ccc(C(=O)C2CCN(C(=O)CCCc3nc4c(cnn4C)c(=O)[nH]3)CC2)cc1" was 1.8e-09

Note to self: EC50 recorded for "O=C(c1ccc(Cl)cc1)C1CCN(C(=O)CCCc2nn3cccc3c(=O)[nH]2)CC1" was 1e-08

Note to self: EC50 recorded for "Cc1nc(CCCC(=O)N2CCC(C(=O)c3cnn(C)c3)CC2)[nH]c(=O)c1C" was 8.8e-07

Note to self: EC50 recorded for "CC(C)n1cc(C(=O)C2CCN(C(=O)CCCc3cn4cccc4c(=O)[nH]3)CC2)cn1" was 3.6e-09

Note to self: EC50 recorded for "Cn1ncc2c(=O)[nH]c(CCCC(=O)N3CCC(c4nnc(-c5ccccc5)o4)CC3)nc21" was 6.6e-08

Note to self: EC50 recorded for "COc1ccc(C(=O)C2CCN(C(=O)CCCc3nn4cc(C)cc4c(=O)[nH]3)CC2)cn1" was 3.6e-08

Note to self: EC50 recorded for "COc1ccc(C(=O)C2CCN(C(=O)CCCc3nc4c(C)csc4c(=O)[nH]3)CC2)cc1F" was 1.9e-09

----------
# target_of_assay: TNKS2 (Homo sapiens)
# Construct: GST-tagged Tnks-2 (873-1166 aa, prepared in-house); made in house
# Sequence (Q9H2K2 873-1166): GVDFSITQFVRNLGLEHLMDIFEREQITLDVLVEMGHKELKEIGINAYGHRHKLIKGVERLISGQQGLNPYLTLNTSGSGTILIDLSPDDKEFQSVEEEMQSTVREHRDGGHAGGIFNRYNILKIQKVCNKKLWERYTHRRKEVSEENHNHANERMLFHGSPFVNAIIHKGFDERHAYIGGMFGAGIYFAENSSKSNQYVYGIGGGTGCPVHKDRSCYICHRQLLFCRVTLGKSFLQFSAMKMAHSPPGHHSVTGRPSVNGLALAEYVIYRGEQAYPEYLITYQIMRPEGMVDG
# test: TNKS2 activity ELISA (autoparsylation assay)
# Assay type: biochemical
# details: GST-tagged Tnks-2 (873-1166 aa); read-out: IC50 [M] TNKS2 ELISA
Structures can show the parent of a compound that is named as a salt.
measured_property: log10 of IC50 (log10 of the value in M)
// stored as log10 of IC50 expressed in M

Note to self: log10 of IC50 recorded for "CCn1cc(C(=O)C2CCN(C(=O)CCCc3nn4cc(C)cc4c(=O)[nH]3)CC2)cn1" was -8.64

Note to self: log10 of IC50 recorded for "COc1ccc(C(=O)C2CCN(C(=O)CCCc3nc4c(C)csc4c(=O)[nH]3)CC2)cn1" was -9.80

Note to self: log10 of IC50 recorded for "COc1ccc(C(=O)C2CCN(C(=O)CCCc3cn4c(C)ncc4c(=O)[nH]3)CC2)cn1" was -7.96

Note to self: log10 of IC50 recorded for "Cn1cc(C(=O)C2CCN(C(=O)CCCc3cn4c(F)ccc4c(=O)[nH]3)CC2)cn1" was -9.64

Note to self: log10 of IC50 recorded for "N#Cc1cc(C2CCN(C(=O)CCCc3nn4cc(F)cc4c(=O)[nH]3)CC2)cnc1N" was -8.44

Note to self: log10 of IC50 recorded for "COc1ccc(C(=O)C2CCN(C(=O)CCCc3noc4ccccc34)CC2)cc1" was -7.02

Note to self: log10 of IC50 recorded for "COc1ccc(C(=O)C2CCN(C(=O)CCCc3cn4c(F)ccc4c(=O)[nH]3)CC2)cc1" was -9.89

Note to self: log10 of IC50 recorded for "CCn1cc(C(=O)C2CCN(C(=O)CCCc3nc4c(c(=O)[nH]3)COCC4)CC2)cn1" was -8.66

Note to self: log10 of IC50 recorded for "N#Cc1ccc(OC2CCN(C(=O)CCCc3nn4cc(F)cc4c(=O)[nH]3)CC2)cc1" was -7.31

Note to self: log10 of IC50 recorded for "COc1ccc(C(=O)C2CCN(C(=O)CCCc3nncc4ccccc34)CC2)cc1" was -8.96

Note to self: log10 of IC50 recorded for "Cc1csc2c(=O)[nH]c(CCCC(=O)N3CCC(C(=O)c4cnn(C(C)C)c4)CC3)nc12" was -9.40

Note to self: log10 of IC50 recorded for "COc1ccc(C(=O)C2CCN(C(=O)CCCc3nn4cccc4c(=O)[nH]3)CC2)cn1" was -9.00

Note to self: log10 of IC50 recorded for "COc1ccc(C(=O)C2CCN(C(=O)CCCc3nc4c(cnn4C)c(=O)[nH]3)CC2)cn1" was -9.46

Note to self: log10 of IC50 recorded for "COc1ccc(C(=O)C2CCN(C(=O)CCCc3nc4c(C)scc4c(=O)[nH]3)CC2)cc1" was -9.48

Note to self: log10 of IC50 recorded for CC(C)c1cc(=O)[nH]c(CCCC(=O)N2CCC(C(=O)c3ccc(F)cc3)CC2)n1 [Compound C255, trifluoroacetate] was -7.31
